Listed compounds paired with reported Inhibition at 100 μM
Tested on: Botrytis cinerea (B05.10)
Assay: Resazurin antifungal assay of 180 alpha-factor peptide variants towards Botrytis (Example 2)
Type: cell-based
Details: % inhibition of fungal growth, Botrytis conidia, peptide 100 μM, resazurin
Peptide text beside a SMILES is read from it.
Field format: number, assumed %, no unit text.

(Q) Which Inhibition at 100 μM value is on record for CSCC[C@H](NC(=O)[C@@H]1CCCN1C(=O)[C@H](CCC(N)=O)NC(=O)CNC(=O)[C@@H](NC(=O)[C@H](CC(N)=O)NC(=O)[C@H](CC(C)C)NC(=O)[C@H](CO)NC(=O)[C@H](CC(C)C)NC(=O)[C@H](Cc1c[nH]c2ccccc12)NC(=O)[C@H](Cc1c[nH]cn1)NC(=O)[C@@H](N)Cc1c[nH]c2ccccc12)[C@@H](C)O)C(=O)N[C@@H](Cc1ccc(O)cc1)C(=O)O [compound 46] (H-WHWLSLNTGQPMY-OH; N-terminus and C-terminus assumed) ?
(A) 97.03

(Q) Param item = CSCC[C@H](NC(=O)[C@@H]1CCCN1C(=O)[C@H](CCC(N)=O)NC(=O)CNC(=O)[C@@H]1CCCN1C(=O)[C@H](CCCCN)NC(=O)[C@H](Cc1ccccc1)NC(=O)[C@H](CCCNC(=N)N)NC(=O)[C@H](CC(C)C)NC(=O)[C@@H](NC(=O)[C@H](Cc1c[nH]cn1)NC(=O)[C@@H](N)Cc1c[nH]c2ccccc12)C(C)C)C(=O)N[C@@H](Cc1ccc(O)cc1)C(=O)O [compound 101] (H-WHVLRFKPGQPMY-OH; N-terminus and C-terminus assumed) ; retrieve measured Inhibition at 100 μM.
(A) 100

----------
System: Botrytis cinerea (B05.10)
Assay: Resazurin antifungal assay of 180 alpha-factor peptide variants towards Botrytis (Example 2)
Format: cell-based
Conditions: % inhibition of fungal growth, Botrytis conidia, peptide 20 μM, resazurin
Peptide text beside a SMILES is read from it.
measurement_name: Inhibition at 20 μM

* CSCC[C@H](NC(=O)[C@@H]1CCCN1C(=O)[C@H](C)NC(=O)CNC(=O)[C@@H]1CCCN1C(=O)[C@H](CCCNC(=N)N)NC(=O)[C@H](Cc1ccccc1)NC(=O)[C@H](CCC(N)=O)NC(=O)[C@@H](NC(=O)[C@H](Cc1c[nH]c2ccccc12)NC(=O)[C@H](Cc1c[nH]cn1)NC(=O)[C@@H](N)Cc1c[nH]c2ccccc12)C(C)C)C(=O)N[C@@H](Cc1ccc(O)cc1)C(=O)O [compound 97] (H-WHWVQFRPGAPMY-OH; N-terminus and C-terminus assumed) | <90%

(Q) Requested field: Inhibition at 20 μM. Item: CSCC[C@H](NC(=O)[C@@H]1CCCN1C(=O)[C@H](CCC(N)=O)NC(=O)CNC(=O)[C@@H]1CCCN1C(=O)[C@H](CCCCN)NC(=O)[C@H](Cc1ccccc1)NC(=O)[C@H](CCCNC(=N)N)NC(=O)[C@H](CC(C)C)NC(=O)[C@@H](NC(=O)[C@H](Cc1c[nH]cn1)NC(=O)[C@@H](N)Cc1c[nH]c2ccccc12)[C@@H](C)O)C(=O)N[C@@H](Cc1ccc(O)cc1)C(=O)O [compound 92] (H-WHTLRFKPGQPMY-OH; N-terminus and C-terminus assumed)
(A) <90%

(Q) Looking for the measured Inhibition at 20 μM of CSCC[C@H](NC(=O)[C@@H]1CCCN1C(=O)[C@H](CCC(N)=O)NC(=O)CNC(=O)[C@@H]1CCCN1C(=O)[C@H](Cc1c[nH]c2ccccc12)NC(=O)[C@H](CC(C)C)NC(=O)[C@H](CCCCN)NC(=O)[C@H](CC(C)C)NC(=O)[C@H](Cc1ccccc1)NC(=O)[C@H](Cc1c[nH]cn1)NC(=O)[C@@H](N)CCCCN)C(=O)N[C@@H](Cc1ccc(O)cc1)C(=O)O [compound 17] (H-KHFLKLWPGQPMY-OH; N-terminus and C-terminus assumed) , can you help?
(A) <90%

(Q) For CC[C@H](C)[C@H](NC(=O)[C@H](Cc1c[nH]c2ccccc12)NC(=O)[C@H](Cc1c[nH]cn1)NC(=O)[C@@H](N)Cc1c[nH]c2ccccc12)C(=O)N[C@@H](CCC(N)=O)C(=O)N[C@@H](Cc1ccccc1)C(=O)N[C@@H](CCCCN)C(=O)N1CCC[C@H]1C(=O)NCC(=O)N[C@@H](CCC(N)=O)C(=O)N[C@@H](CO)C(=O)N[C@@H](CCSC)C(=O)N[C@@H](Cc1ccc(O)cc1)C(=O)O [compound 26] (H-WHWIQFKPGQSMY-OH; N-terminus and C-terminus assumed) , what is its reported Inhibition at 20 μM?
(A) <90%

(Q) If you can, please state the reported Inhibition at 20 μM value of CSCC[C@H](NC(=O)[C@@H]1CCCN1C(=O)[C@H](CCC(N)=O)NC(=O)CNC(=O)[C@@H]1CCCN1C(=O)[C@H](CC(N)=O)NC(=O)[C@H](CC(C)C)NC(=O)[C@H](CCCNC(=N)N)NC(=O)[C@H](CC(C)C)NC(=O)[C@H](Cc1c[nH]c2ccccc12)NC(=O)[C@H](Cc1c[nH]cn1)NC(=O)[C@@H](N)CCCCN)C(=O)N[C@@H](Cc1ccc(O)cc1)C(=O)O [compound 69] (H-KHWLRLNPGQPMY-OH; N-terminus and C-terminus assumed) .
(A) 95.74%

----------
Tested on: Botrytis cinerea (B05.10)
Assay: Resazurin antifungal assay of 180 alpha-factor peptide variants towards Botrytis (Example 2)
Format: cell-based
Conditions: % inhibition of fungal growth, Botrytis conidia, peptide 20 μM, resazurin
Peptide text beside a SMILES is read from it.
Inhibition at 20 μM reference

Completed entries (count: 5):
* CC[C@H](C)[C@H](NC(=O)[C@H](CCCCN)NC(=O)[C@H](CC(C)C)NC(=O)[C@H](Cc1c[nH]c2ccccc12)NC(=O)[C@H](Cc1c[nH]cn1)NC(=O)[C@@H](N)Cc1c[nH]c2ccccc12)C(=O)N[C@@H](Cc1c[nH]c2ccccc12)C(=O)N1CCC[C@H]1C(=O)NCC(=O)N[C@@H](CCC(N)=O)C(=O)N1CCC[C@H]1C(=O)N[C@@H](CCSC)C(=O)N[C@@H](Cc1ccc(O)cc1)C(=O)O [compound 99] (H-WHWLKIWPGQPMY-OH; N-terminus and C-terminus assumed) | <90%
* CSCC[C@H](NC(=O)[C@@H]1CCCN1C(=O)[C@H](CCC(N)=O)NC(=O)CNC(=O)[C@@H]1CCCN1C(=O)[C@H](CCCCN)NC(=O)[C@H](Cc1ccccc1)NC(=O)[C@H](CC(N)=O)NC(=O)[C@H](CC(C)C)NC(=O)[C@H](Cc1ccc(O)cc1)NC(=O)[C@H](Cc1c[nH]cn1)NC(=O)[C@@H](N)CCCCN)C(=O)N[C@@H](Cc1ccc(O)cc1)C(=O)O [compound 24] (H-KHYLNFKPGQPMY-OH; N-terminus and C-terminus assumed) | <90%
* CC[C@H](C)[C@H](NC(=O)[C@H](CCCNC(=N)N)NC(=O)[C@H](CC(C)C)NC(=O)[C@H](Cc1c[nH]c2ccccc12)NC(=O)[C@H](CCC(N)=O)NC(=O)[C@@H](N)Cc1c[nH]c2ccccc12)C(=O)N[C@@H](CCCCN)C(=O)N[C@@H](CO)C(=O)NCC(=O)N[C@@H](CCC(N)=O)C(=O)NCC(=O)N[C@@H](CCSC)C(=O)N[C@@H](Cc1ccc(O)cc1)C(=O)O [compound 73] (H-WQWLRIKSGQGMY-OH; N-terminus and C-terminus assumed) | <90%
* CSCC[C@H](NC(=O)[C@@H]1CCCN1C(=O)[C@H](CCC(N)=O)NC(=O)CNC(=O)[C@@H](NC(=O)[C@H](CCCCN)NC(=O)[C@H](CC(C)C)NC(=O)[C@H](CO)NC(=O)CNC(=O)[C@H](Cc1c[nH]c2ccccc12)NC(=O)[C@H](Cc1c[nH]cn1)NC(=O)[C@@H](N)Cc1c[nH]c2ccccc12)C(C)C)C(=O)N[C@@H](Cc1ccc(O)cc1)C(=O)O [compound 82] (H-WHWGSLKVGQPMY-OH; N-terminus and C-terminus assumed) | <90%
* CSCC[C@H](NC(=O)[C@@H]1CCCN1C(=O)[C@H](CCC(=O)O)NC(=O)CNC(=O)[C@@H]1CCCN1C(=O)[C@H](CCCCN)NC(=O)[C@H](Cc1ccccc1)NC(=O)[C@H](CCCCN)NC(=O)[C@H](CC(C)C)NC(=O)[C@H](Cc1ccccc1)NC(=O)[C@H](Cc1c[nH]cn1)NC(=O)[C@@H](N)Cc1c[nH]c2ccccc12)C(=O)N[C@@H](Cc1ccc(O)cc1)C(=O)O [compound 85] (H-WHFLKFKPGEPMY-OH; N-terminus and C-terminus assumed) | <90%

Now look at this one.
(Q) Look up Inhibition at 20 μM for this compound: CC[C@H](C)[C@H](NC(=O)[C@H](CCC(N)=O)NC(=O)[C@H](CC(C)C)NC(=O)[C@H](Cc1c[nH]c2ccccc12)NC(=O)[C@H](CCCNC(=N)N)NC(=O)[C@@H]1CCCN1)C(=O)N[C@@H](CCCCN)C(=O)N[C@@H](CCCCN)C(=O)NCC(=O)N[C@@H](CCC(N)=O)C(=O)N[C@@H](CO)C(=O)N[C@@H](CCSC)C(=O)N[C@@H](Cc1ccc(O)cc1)C(=O)O [compound 63] (H-PRWLQIKKGQSMY-OH; N-terminus and C-terminus assumed)
(A) <90%

The measurements presented in this section are drawn from patent US20250382332A1.
